# target entity: T1, SARS-CoV-2 Receptor Binding Domain (RBD) protein (SARS-CoV-2, UniProt P0DTC2 319-541)
# T1 construct: also called Sars-Cov-2 (COV2)
# test method notes: SPR (Carterra LSA); scFv captured by anti-V5, RBD as analyte
Measured koff by item
Write the number in s⁻¹ without appending the unit.

{"binder": "COVID19_P01_H10 (scFv, V domains shown, also called COVID19_PO1_H10) VH: QVQLVQSGAEVKKPGSSVKVSCKASGGTFGNYPITWVRQAPGQGLEWMGIIYPGDSDARYRPSFQGRVTITADESTSTAYMELSSLRSEDTAVYYCARDFSMGGMDVWGQGTLVTVSS VL: SSYVLTQPPSVSVAPGKTARITCGGNNIGSKSVHWYQQKPGQAPVLVIYYDSDRPSGIPERFSGSNSGNTATLTISRVEAGDEADYYCQVWDDSSDYVFGGGTKLTVLA", "unit tag": "s⁻¹", "koff": 0.0148}

Turning now to a further binder:
Form field: reported koff of COVID19_P01_H06 (scFv, V domains shown) VH: QVQLVQSGAEVKKPGSSVKVSCKASGYTFTSYYMHWVRQAPGQGLEWMGLIDPSGGTTSYAQKFQGRVTITADESTSTAYMELSSLRSEDTAVYYCVWDTVMGGMDVWGQGTLVTVSS VL: SYVLTQPPSVSVAPGKTAARITCGGNNIGSKSVHWYQQKPGQAPVLVIYKDGERPSGIPERFSGSNSRNTATLTISRVEAGDEADYYCQVWDSSSLYVFGGGTKLTVLA 0.000621

Data origin: patent US20230272051A1
